# Test system: T-47D breast
# protocol_details: NCI-60 one-dose screen, 48 h
# settings: 10 µM unless noted
This is part of a sample that, as a whole, favours compounds with a hit. Of some 83,000 tested, about 20% had one in any assay. Active and inactive are the calls of the source. Rule for the calls: active = growth percent below 10; inactive = the rest.
Return exactly one item of active, inactive

Some solved cases for reference:
[
  {
    "compound": "CCOC(=O)N[C@H]1CCc2c(Br)c(OC)c(OC)c(OC)c2-c2ccc(SC)c(=O)cc21",
    "class_label": "inactive"
  },
  {
    "compound": "CCN(CC)c1ccc2c(c1)OC(N)=C(C#N)C2c1cc(OC)c2c(c1)OCO2 (stereo not drawn)",
    "class_label": "inactive"
  },
  {
    "compound": "COc1cc(C=Nc2cccc(Br)c2)ccc1N(CCCl)CCCl",
    "class_label": "inactive"
  }
]

### Prompt Can you look up the reported call for Nc1ncnc2n[nH]nc12 for me?
### Response active

### Prompt Each compound tested received a call. Report the one for Cc1ccccc1NC(=NCCCN1CC1)Nc1ccccc1C .
### Response inactive

---

# System: HCT-15 colon
# protocol_details: NCI-60 one-dose screen, 48 h (100 = growth as untreated, 0 = no growth, -100 = all killed)
# settings: 10 µM unless noted
This is part of a sample that, as a whole, favours compounds with a hit. Of some 83,000 tested, about 20% had one in any assay.
Reported growth by item:
Your answer is read as %, so omit the unit and give the number.

### Prompt Give HCT-15 colon growth for O=C(Nc1ccc(O)cc1)C(Cl)(Cl)Cl
### Response 98.7

### Prompt So what growth did Cc1ccc(Nc2nc3c(s2)C2=CC[C@@H]4[C@H](CC[C@]5(C)C(=O)CC[C@@H]45)[C@@]2(C)CC3)cc1 get with HCT-15 colon?
### Response 17

### Prompt Find the measured growth: item CC(C)[C@]12O[C@H]1[C@@H]1O[C@]13[C@]1(O[C@H]1C[C@H]1c4c(C(=O)c5ccccc5)oc(OC(=O)c5ccccc5)c4CC[C@@]13C)[C@@H]2O , target or system HCT-15 colon.
### Response 5.32

### Prompt Kindly state the measured growth obtained for CCOC(=S)S[C@H]1C[C@@H]2[C@H](CC[C@]3(C)C(=O)CC[C@@H]23)[C@@]2(C)CCC(=O)C=C12 with HCT-15 colon.
### Response 101

### Prompt Form entry - test system: HCT-15 colon; read-out: growth; compound: O[C@H](CN1CC1)[C@@H](O)CN1CC1
### Response 79.9

### Prompt Request - read-out growth | tested on HCT-15 colon | compound CC1=C(CCCOC(=O)[C@H](N)CC(C)C)C2=C(C)C3(CC3)[C@@](C)(O)C(=O)C2=C1
### Response 4.16

### Prompt API: value(readout=growth, system=HCT-15 colon) for record O=C(Nc1ccc(Cl)cc1)Nc1nccs1
### Response 33

### Prompt Item: COC(=O)[C@@H](C)C[C@H](Cc1ccc(F)cc1)NC(=O)c1csc([C@@H](C[C@H](C(C)C)N(C)C(=O)[C@@H](NC(=O)[C@H]2CCCCN2C)C(C)C)OC(C)=O)n1 Test system: HCT-15 colon Read-out: growth Value: ?
### Response 15.6

---

# Tested on: NCI-H460 lung
# protocol_details: NCI-60 one-dose screen, 48 h (100 = growth as untreated, 0 = no growth, -100 = all killed)
# settings: 10 µM unless noted
The panel holds about 83,000 compounds, 20% with a hit somewhere; the sample as a whole holds those more often.
quantity: growth (%)
Write the answer as a number in %, unit excluded.

[
  {
    "molecule": "CCn1c2ccccc2c2cc(C(=O)c3cccc4c3CCCN4)ccc21",
    "value_reported": 101
  },
  {
    "molecule": "CC(C)(C)C(=O)OCOP(=O)(NCc1ccccc1)C1CCCN(O)C1=O (centres undefined)",
    "value_reported": 7.07
  },
  {
    "molecule": "C[n+]1c(/C=C/c2ccc(N(CCCl)CCCl)cc2)sc2ccccc21",
    "value_reported": 20.7
  },
  {
    "molecule": "CCOC(=O)CCC(NC(=O)C(Cc1ccc(N(CCCl)CCCl)cc1)NC=O)C(=O)OCC (centres undefined)",
    "value_reported": 8.71
  }
]

Consider the additional molecule presented here.
### Prompt Which growth is listed for COc1cc2c(cc1OCCCn1c(-c3ccccn3)nc3ccccc31)N=C[C@@H]1CCCN1C2=O ?
### Response -22.7

---

Quick reference: growth of the listed items.
# System: PC-3 prostate
# protocol_details: NCI-60 one-dose screen, 48 h (100 = growth as untreated, 0 = no growth, -100 = all killed)
# settings: 10 µM unless noted
Compounds without any hit were thinned out: in the full panel of roughly 83,000, 20% have a hit.
Express the result in % but write the number alone.

[
  {
    "compound": "Clc1ccc(COC(Cn2ccnc2)c2ccc(Cl)cc2Cl)cc1 (configuration not stated)",
    "unit": "%",
    "growth": 21.1
  },
  {
    "compound": "COC(=O)[C@H](Cc1c[nH]c2ccccc12)NC(=O)[C@@H](OC)[C@@H]1Cc2cc3cc(OC4CC(OC5CC(O)C(O)C(C)O5)C(O)C(C)O4)c(C)c(O)c3c(O)c2C(=O)[C@H]1OC1CC(OC2CC(OC3CC(C)(O)C(O)C(C)O3)C(O)C(C)O2)C(O)C(C)O1 (some centres not stated)",
    "unit": "%",
    "growth": -10.4
  },
  {
    "compound": "CCCCCN(CCCCC)CC(O)c1cc(Cl)ccc1OC (configuration not stated)",
    "unit": "%",
    "growth": 24.5
  },
  {
    "compound": "O=NNc1ccccn1",
    "unit": "%",
    "growth": 82.9
  },
  {
    "compound": "O=C(CC1(O)C(=O)N(Cc2ccccc2)c2ccc(Cl)cc21)c1ccc(C(=O)NCC2CCC3(CC2)OOC2(CCCCC2)OO3)cc1 (configuration not stated)",
    "unit": "%",
    "growth": -54.3
  },
  {
    "compound": "CN(C)CCCOc1ccc2c(c1)c(C(=O)C(=O)NCCO)cn2Cc1ccccc1",
    "unit": "%",
    "growth": 105
  }
]

Okay, now this compound:
### Prompt Give its growth value. Item: O=P(Oc1ccc(Cl)cc1)(N1CC1)N1CC1
### Response 76.1

---

# Tested on: MCF7 breast
# protocol_details: NCI-60 one-dose screen, 48 h
# settings: 10 µM unless noted
About 83,000 compounds went through this panel and 20% of them were active in at least one assay; those are over-represented in the sample as a whole. Calls of active or inactive are those of the source. How the source made its calls: active means growth percent below 10; inactive means the rest.
In this exercise, the only acceptable responses are t for active, f for inactive

Reference set (2 entries):
[
  {
    "compound": "COc1cccc2c1c(C(=O)c1ccco1)cn2Cc1ccc(F)cc1",
    "class_label": "f"
  },
  {
    "compound": "c1cc2c(c3c1CCNC3)OCO2",
    "class_label": "f"
  }
]

### Prompt Tell me the assay call for O=C(CCCCCCC(=O)Nc1ccc(N(CCCl)CCCl)cc1)NO please.
### Response t

### Prompt I would be grateful if you could indicate the recorded call for CCn1c2ccccc2c2cc(C(=O)c3ccc(C)c4ccccc34)ccc21 .
### Response f

### Prompt Could you check what this test reported for C#Cc1ccc2c(c1)C(c1ccccc1)=NCC(=O)N2C ?
### Response f

---

# System: NCI-H460 lung
# protocol_details: NCI-60 one-dose screen, 48 h (100 = growth as untreated, 0 = no growth, -100 = all killed)
# settings: 10 µM unless noted
# Procedure: Growth inhibition of the NCI-H460 human Non-Small Cell Lung tumor cell line is measured as a screen for anti-cancer activity. Cells are grown in 96 well plates and exposed to the test compound for 48 hours. Compounds are tested at a single concentration, which is 10^-5 M for most compounds. The reported endpoint is percent growth (GI% or GIPRCNT), where numbers from 0 - 100% represent growth inhibition, and numbers from -100% - 0 represent cell death. […]
Compounds without any hit were thinned out: in the full panel of roughly 83,000, 20% have a hit.
Item-by-item account of growth
State just the number; it will be interpreted in %.

Some entries whose results are on file:
[
  {
    "compound": "CCOC(=O)[C@@H](C)C[C@H](Cc1ccccc1)NC(=O)c1csc([C@@H](C[C@H](C(C)C)N(C)C(=O)[C@@H](NC(=O)[C@H]2CCCCN2C)C(C)(C)C)OC(C)=O)n1",
    "growth (%)": 6.23
  },
  {
    "compound": "COc1ccc2nc(NC(=O)COc3cc(/C=C\\c4cc(OC)c(OC)c(OC)c4)ccc3OC)sc2c1",
    "growth (%)": 4.25
  },
  {
    "compound": "Cn1cc(-c2csc(-c3cn(CCCCN4CCCCC4)c4ccccc34)n2)c2cccnc21",
    "growth (%)": -44.9
  },
  {
    "compound": "CCCCNC(c1ccc(Cl)cc1)C(O)c1ccc(Cl)cc1 (centres undefined)",
    "growth (%)": 7.67
  },
  {
    "compound": "CCCCCCCC[N+](C)(CCCCCCCC)CCCCCCCC",
    "growth (%)": -100
  },
  {
    "compound": "N/C(=N/N=C/c1ccncc1)N[N+](=O)[O-]",
    "growth (%)": 112
  },
  {
    "compound": "Brc1ccc2c(c1)c(-c1nc(-c3c[nH]c4ncccc34)cs1)cn2CCN1CCOCC1",
    "growth (%)": 63.2
  },
  {
    "compound": "CC(=O)OC1CCC2(C)C(CCC3C2CC(=O)C2(C)C3CC(Sc3ccc(N(CCCl)CCCl)cc3)C2C(C)=O)C1 (centres undefined)",
    "growth (%)": 32.5
  }
]

# ---- query compound ----
### Prompt State its growth on NCI-H460 lung: COc1ccc2c(c1)c(-c1nc(-c3cn(C)c4ncccc34)cs1)cn2CCN1CCOCC1
### Response 23.9
